Origin of values: the supplement of paper PMC12667976

B1: library; numbered along this chain (parent)
chain: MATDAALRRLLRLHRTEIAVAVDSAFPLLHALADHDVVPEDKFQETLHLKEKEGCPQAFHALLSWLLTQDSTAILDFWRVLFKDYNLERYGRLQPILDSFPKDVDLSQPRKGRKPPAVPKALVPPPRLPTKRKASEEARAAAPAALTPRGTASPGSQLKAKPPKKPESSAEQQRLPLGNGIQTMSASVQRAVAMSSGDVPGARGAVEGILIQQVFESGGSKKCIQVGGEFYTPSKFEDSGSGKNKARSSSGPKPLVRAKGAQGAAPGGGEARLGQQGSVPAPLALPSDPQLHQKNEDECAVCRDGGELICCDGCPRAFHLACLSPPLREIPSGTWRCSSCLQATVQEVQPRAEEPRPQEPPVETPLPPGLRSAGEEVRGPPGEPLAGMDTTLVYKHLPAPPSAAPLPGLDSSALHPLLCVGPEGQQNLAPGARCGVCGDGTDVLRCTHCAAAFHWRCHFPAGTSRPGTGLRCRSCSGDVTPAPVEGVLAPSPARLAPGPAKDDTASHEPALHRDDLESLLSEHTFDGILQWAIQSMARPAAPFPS

variants of: B1; test: AIRE transcriptional activation functional score (insulin promoter-GFP; nonsense median 0, synonymous median 1) (normalised score); higher = higher AIRE activity (more reporter activation); details: with insulin promoter-GFP reporter in HEK293
ASSAY ENDPOINT: AIRE transcriptional activation functional score
Numbers only.

Known AIRE transcriptional activation functional score results, listed for orientation:
| MUTATION NOTATION | MEASURED VALUE |
| --- | --- |
| D41I | -1.3 |
| A271L | 1.24 |
| T232R | 1.18 |

Report AIRE transcriptional activation functional score for every entry below.
1. P315E
2. R465F

RESULT:
1. 0.802
2. 1.15

Take each entry in turn and give its AIRE transcriptional activation functional score.
1. E229I
2. V420D
3. L93T
4. S491C
5. R445W
6. L341Q
7. R303M

RESULT:
1. 0.102
2. 0.683
3. -0.0548
4. 1.29
5. 0.804
6. 1.08
7. 1.28

Hi team, please reply with AIRE transcriptional activation functional score for each item in this list.
1. G269E
2. H30S

RESULT:
1.1
0.156

List the reported AIRE transcriptional activation functional score of each variant below.
1. R9F
2. V80C
3. V420Q
4. A121C
5. G306V
6. H60P
7. P398M

RESULT:
[-0.124, -0.468, -0.123, 1.3, 0.712, -0.793, 0.82]

QUERY: Item `Q425D` has what recorded AIRE transcriptional activation functional score?
RESULT: 0.431
